Cited source for all entries: patent US6989384B2

Can you tell me kinact/KI for the items I'm about to list?
# tested_on: rhinovirus 3C protease from HRV serotype-14 (Human rhinovirus 14)
# Construct: Recombinant rhinovirus 3C proteases; made in house
# Sequence (P03303 1538-1719): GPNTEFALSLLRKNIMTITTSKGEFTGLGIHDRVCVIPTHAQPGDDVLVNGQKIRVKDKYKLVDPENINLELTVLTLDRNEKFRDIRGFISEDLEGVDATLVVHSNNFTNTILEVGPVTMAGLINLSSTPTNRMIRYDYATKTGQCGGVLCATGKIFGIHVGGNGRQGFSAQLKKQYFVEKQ
# assay_protocol: Inhibition of rhinovirus 3C protease activity (FRET assay), HRV-14
# Format: biochemical
# measurement_context: read-out: Protease Inhibition kobs/I
# Description: Stock solutions (50 mM, in DMSO) of various compounds were prepared; dilutions were in the same solvent. […] RVP activity was measured in the fluorescence resonance energy transfer assay. […] In the uncleaved peptide, the EDANS fluorescence was quenched by the proximal DABCYL group. When the peptide was cleaved, the quenching was relieved, and activity was measured as an increase in fluorescence signal. […]
Answers are plain numbers, in M⁻¹ s⁻¹.

Record excerpt, results attached:
> print(dat)
                                smiles.text  test.result
1  CCOC(=O)/C=C/[C@H](C[C@@H]1CCNC1=O)NC(=O)c1ccc2cc(C)ccc2c1         5020
2  CCOC(=O)/C=C/[C@H](C[C@@H]1CCNC1=O)NC(=O)C1=Cc2cc(Cl)ccc2OC1        19700
3  CCOC(=O)/C=C/[C@H](C[C@@H]1CCNC1=O)NC(=O)/C=C/c1ccc(C)cc1          990
4  CCOC(=O)/C=C/[C@H](C[C@@H]1CCNC1=O)NC(=O)/C=C/c1cc2c(cc1Br)OCO2        14400
5  CCOC(=O)/C=C/[C@H](C[C@@H]1CCNC1=O)NC(=O)c1cc2cc(C)ccc2[nH]1         3460

Fill in kinact/KI for each of the 2 compounds listed.
1. CCOC(=O)/C=C/[C@H](C[C@@H]1CCNC1=O)NC(=O)c1cc(-c2ccccc2)oc1C
2. CCOC(=O)/C=C/[C@H](C[C@@H]1CCNC1=O)NC(=O)c1cc2cc(OC)c(OC)cc2n1C

Outgoing:
1. 4740
2. 1230
